System: SMN protein
measurement-protocol: SMN protein assay (HTRF) in cultured SMA patient fibroblast cells
Type: cell-based
test-conditions: SMA Type 1 human fibroblasts GM03813, 48 hours, 7-point concentration data; fold vs vehicle control
Counter-ions that a name gives are not always drawn.
I'd be grateful if you could share measured max. fold increase (maximum fold increase of SMN protein) for these entries.
Give bare numbers.

>>> df
                                   compound  result_value
0  Cc1cn2cc(NC(=O)c3ccc(N4CCN[C@H](C)C4)cc3F)cc(F)c2n1 [Example 51, hydrochloride]        1.7266
1  Cc1nc2c(F)cc(NC(=O)c3ccc(N4CC(C)NC(C)C4)nc3)cc2o1 (centres unmarked)        1.6942
2  Cc1cn2cc(NC(=O)c3cnc(N4CCNCC4)cc3OCC(F)(F)F)cc(F)c2n1        1.4815
3  Cc1cn2cc(NC(=O)c3ccc(N4CCNC(C)C4)cc3)nc2c(C)n1 (racemic)        1.8878
4  Cc1cn2cc(NC(=O)c3ccc(N4CCNCC4)cc3)nc2c(C)n1        1.6736
5  Cc1cn2cc(NC(=O)c3ccc(N4CCNCC4)cc3F)ccc2n1        1.8243
6  Cc1cn2cc(NC(=O)c3ccc(C4=CCNCC4)cc3F)ccc2n1 [Example 60, hydrochloride]        1.7375

# `Cc1cn2cc(NC(=O)c3ccc(N4CCNCC4)c(C)c3)cc(F)c2n1` with SMN protein: max. fold increase (maximum fold increase of SMN protein) is 1.5438

----------
Test system: SMN protein
measurement-protocol: SMN protein assay (HTRF) in cultured SMA patient fibroblast cells
Type: cell-based
test-conditions: SMA Type 1 human fibroblasts GM03813, 48 hours, 7-point concentration data; fold vs vehicle control
Structures can show the parent of a compound that is named as a salt.
I'd be grateful if you could share measured max. fold increase (maximum fold increase of SMN protein) for these entries.
Answers are plain numbers.

Examples with answers:
In [3]: df
Out[3]:
                                   compound  result_value
0  Cc1cn2cc(NC(=O)c3ccc(N4CCNC(C)C4)nc3)nc2c(C)n1 (racemic) [Example 7]        1.7936
1  Cc1nc2c(F)cc(NC(=O)c3ccc(N4CCN5CCC[C@@H]5C4)cc3F)cc2o1 [Example 34]        1.6527
2  Cc1cn2cc(NC(=O)c3ccc(C4=CCNCC4)cn3)ccc2n1 [Example 63, dihydrochloride]        1.6807

// max. fold increase (maximum fold increase of SMN protein) lookup, compound = Cc1cn2cc(NC(=O)c3ncc(N4CCNC(C)C4)cc3F)cc(F)c2n1 (racemic) [Example 48, hydrochloride] , result: 1.738

----------
Test system: full length SMN2 minigene mRNA (FL SMN2mini) in HEK293H cells stably transfected with the SMN2-A minigene construct
measurement-protocol: SMN2 minigene mRNA splicing RT-qPCR assay in cultured cells
Type: cell-based
test-conditions: Homo sapiens, HEK293-H, 24 hours, 7-point concentration curve, concentration giving 1.5-fold FL SMN2mini mRNA vs vehicle, read-out: EC1.5x minigene (EC1.5x concentration for production of full length SMN2 minigene mRNA)
Structures can show the parent of a compound that is named as a salt.
endpoint: EC (1.5-fold)

>>> print(df.to_string())
                                   compound  result_value
0  COc1cc(N2CCNC(C)C2)ncc1C(=O)Nc1cc(F)c2nc(C)cn2c1 (racemic)     0.0187 µM
1  COc1nc(N2CCNC(C)(C)C2)ccc1C(=O)Nc1cc(F)c2nc(C)cn2c1     0.0654 µM
2  Cc1nc2c(F)cc(NC(=O)c3ccc(N4CCN(C)CC4)nc3)cc2o1      0.649 µM

// each compound listed below needs its EC (1.5-fold)
1. Cc1cn2cc(NC(=O)c3cnc(N4CCNCC4)cc3OCC(F)(F)F)cc(F)c2n1
2. Cc1nc2c(F)cc(NC(=O)c3ccc(N4CCNC(C)C4)nc3)cc2o1 (racemic)
3. Cc1cn2cc(NC(=O)c3ccc(N4CCNCC4)cc3)nc2c(C)n1
4. Cc1cn2cc(NC(=O)c3ccc(N4CCNC(C)C4)cc3F)c(C)cc2n1 (racemic) [Example 52, dihydrochloride]
5. Cc1cn2cc(NC(=O)c3ccc(N4CCNC(C)C4)cc3F)cc(Cl)c2n1 (racemic) [Example 54, dihydrochloride]

// result
1: 0.077 µM; 2: 0.0989 µM; 3: 0.0316 µM; 4: 0.04 µM; 5: 0.0128 µM

// each compound listed below needs its EC (1.5-fold)
1. Cc1nc2c(F)cc(NC(=O)c3ccc(N4CCNCC4)cc3)cc2o1
2. Cc1cn2cc(NC(=O)c3ccc(N4CCNCC4)nc3F)cc(F)c2n1
3. Cc1cn2cc(NC(=O)c3ncc(N4CCNC(C)C4)cc3F)cc(F)c2n1 (racemic) [Example 48, hydrochloride]
4. Cc1cn2cc(NC(=O)c3ccc(N4CCN5CCC[C@H]5C4)cc3F)ccc2n1

// result
1: 0.252 µM; 2: 0.0762 µM; 3: 0.0164 µM; 4: 0.119 µM

// each compound listed below needs its EC (1.5-fold)
1. Cc1cn2cc(NC(=O)c3ccc(N4CCNC(C)(C)C4)nc3)ccc2n1
2. Cc1nc2c(F)cc(NC(=O)c3ccc(N4CCNCC4)cc3F)cc2o1
3. Cc1cn2cc(NC(=O)c3cc(F)c(N4CCNC(C)C4)cc3F)cc(F)c2n1 (racemic) [Example 46, hydrochloride]
4. Cc1cn2cc(NC(=O)c3ccc(C4=CCNCC4)cc3F)ccc2n1 [Example 60, hydrochloride]
5. Cc1cn2cc(NC(=O)c3ccc(N4CCN5CCC[C@H]5C4)nc3)cc(C(F)(F)F)c2n1

// result
1. 1.03 µM
2. 0.0398 µM
3. 0.0887 µM
4. 0.0428 µM
5. 0.386 µM

// each compound listed below needs its EC (1.5-fold)
1. CCN1CCN(c2ccc(C(=O)Nc3cn4cc(C)nc(C)c4n3)cn2)CC1
2. Cc1cn2cc(NC(=O)c3c(F)cc(N4CCNC(C)C4)cc3F)cc(F)c2n1.Cl (racemic) [Example 49, hydrochloride]
3. Cc1cn2cc(NC(=O)c3ccc(N4CCN5CCC[C@H]5C4)cc3F)cc(C(F)(F)F)c2n1

// result
1: 0.201 µM; 2: 0.0107 µM; 3: 0.202 µM

// each compound listed below needs its EC (1.5-fold)
1. Cc1nc2c(F)cc(NC(=O)c3ccc(N4CCNCC4)nc3)cc2o1
2. Cc1cn2cc(NC(=O)c3ccc(C4=CCNCC4)cc3F)cc(F)c2n1 [Example 61, hydrochloride]

// result
1. 0.0445 µM
2. 0.01 µM

// each compound listed below needs its EC (1.5-fold)
1. Cc1cn2cc(NC(=O)c3ccc(C4=CCNCC4)cn3)ccc2n1 [Example 63, dihydrochloride]
2. Cc1cn2cc(NC(=O)c3ccc(N4CCN[C@@H](C)C4)cc3F)cc(F)c2n1 [Example 50, hydrochloride]
3. Cc1cn2cc(NC(=O)c3ccc(N4CCNCC4)cc3F)cc(F)c2n1 [Example 40, dihydrochloride]
4. Cc1cn2cc(NC(=O)c3ccc(C4CCN(C)CC4)nc3)cc(F)c2n1

// result
1: 0.16 µM; 2: 0.0068 µM; 3: 0.0108 µM; 4: 0.115 µM

// EC (1.5-fold) lookup, compound = `COc1nc(N2CCNCC2)ccc1C(=O)Nc1cc(F)c2nc(C)cn2c1` , result: 0.0291 µM

----------
Test system: full length SMN2 minigene mRNA (FL SMN2mini) in HEK293H cells stably transfected with the SMN2-A minigene construct
measurement-protocol: SMN2 minigene mRNA splicing RT-qPCR assay in cultured cells
Type: cell-based
test-conditions: Homo sapiens, HEK293-H, 24 hours, 7-point concentration curve, concentration giving 1.5-fold FL SMN2mini mRNA vs vehicle, read-out: EC1.5x minigene (EC1.5x concentration for production of full length SMN2 minigene mRNA)
I'd be grateful if you could share measured EC (1.5-fold) for these entries.
Give bare numbers, in µM.

In [3]: df
Out[3]:
                                   compound       endpoint  unit_info  result_value
0  Cc1cn2cc(NC(=O)c3ccc(N4CCNCC4)cc3F)ccc2n1  EC (1.5-fold)         µM        0.0648
1  Cc1cn2cc(NC(=O)c3ccc(N4CCNC(C)C4)cc3F)nc2c(C)n1 (racemic)  EC (1.5-fold)         µM        0.0612
2  Cc1nc2c(F)cc(NC(=O)c3ccc(N4CC(C)NC(C)C4)nc3)cc2o1 (stereo not shown)  EC (1.5-fold)         µM         0.201

Consider the additional compound presented here.
// EC (1.5-fold) lookup, compound = Cc1nc2c(F)cc(NC(=O)c3ccc(N4CCNC(C)C4)cc3)cc2o1 (racemic) , result: 0.267
